The origin of these recorded values is patent US20260250371A1.

- system: T1, recombinant human FGF23 (R179Q) (human, UniProt Q9GZV9 25-251)
- T1 construct: also called rhFGF23(R179Q); hFGF23(R179Q)
- T1 sequence (looked up): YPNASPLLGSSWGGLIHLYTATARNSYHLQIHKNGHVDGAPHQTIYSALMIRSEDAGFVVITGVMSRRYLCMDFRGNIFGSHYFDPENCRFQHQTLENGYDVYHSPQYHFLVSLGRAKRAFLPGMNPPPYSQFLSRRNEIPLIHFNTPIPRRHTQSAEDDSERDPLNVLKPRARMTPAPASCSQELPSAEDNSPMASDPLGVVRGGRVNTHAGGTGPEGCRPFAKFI
- test.description: SPR, antibody captured on hIgG chip, human FGF23 analyte
metric.name: KD ratio (variant antibody KD/burosumab KD)

Endpoint output: KD ratio (variant antibody KD/burosumab KD) of UGX201 (antibody, human IgG1, kappa, V domains shown, also called HC:S59E, LC:N92F; S59E/N92F) VH: QVQLVQSGAEVKKPGASVKVSCKASGYTFTNHYMHWVRQAPGQGLEWMGIINPISGSTENAQKFQGRVTMTRDTSTSTVYMELSSLRSEDTAVYYCARDIVDAFDFWGQGTMVTVSS VL: AIQLTQSPSSLSASVGDRVTITCRASQGISSALVWYQQKPGKAPKLLIYDASSLESGVPSRFSGSGSGTDFTLTISSLQPEDFATYYCQQFFDYFTFGPGTKVDIKR . Value?
4

Endpoint output: KD ratio (variant antibody KD/burosumab KD) of UGX175 (antibody, human IgG1, kappa, V domains shown, also called HC:A103S; A103S) VH: QVQLVQSGAEVKKPGASVKVSCKASGYTFTNHYMHWVRQAPGQGLEWMGIINPISGSTSNAQKFQGRVTMTRDTSTSTVYMELSSLRSEDTAVYYCARDIVDSFDFWGQGTMVTVSS VL: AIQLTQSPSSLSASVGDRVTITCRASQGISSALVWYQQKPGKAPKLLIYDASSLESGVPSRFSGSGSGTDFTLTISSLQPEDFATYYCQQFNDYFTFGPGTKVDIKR . Value?
3

Endpoint output: KD ratio (variant antibody KD/burosumab KD) of UGX139 (antibody, human IgG1, kappa, V domains shown, also called UGX038; LC:N92Y) VH: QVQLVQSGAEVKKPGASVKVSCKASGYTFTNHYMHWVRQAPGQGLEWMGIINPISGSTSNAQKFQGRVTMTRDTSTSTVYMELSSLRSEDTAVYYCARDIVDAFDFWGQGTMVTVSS VL: AIQLTQSPSSLSASVGDRVTITCRASQGISSALVWYQQKPGKAPKLLIYDASSLESGVPSRFSGSGSGTDFTLTISSLQPEDFATYYCQQFYDYFTFGPGTKVDIKR . Value?
1
